The reader will find reported pest or weed control at 125 g/ha values listed item by item below.
# Test system: ragweed (common ragweed, Ambrosia elatior)
# METHOD_SUMMARY: Test A preemergence
# Format: in vivo
# CONDITIONS: Ambrosia artemisiifolia, pre-emergence, 240 h, 125 g ai/ha, 0 to 100 scale (0 no effect, 100 complete control), read-out: Ragweed plant response rating
Write it as a number; the unit % goes unstated.

Lookup: Notebook: pull reported pest or weed control at 125 g/ha for ragweed (common ragweed, Ambrosia elatior), entry N#Cc1cccc(Oc2ncc(C(F)(F)F)cn2)c1Oc1ncc(Cl)cn1
Found: 40

Lookup: Notebook: pull reported pest or weed control at 125 g/ha for ragweed (common ragweed, Ambrosia elatior), entry N#Cc1cccc(Oc2ncc(Cl)cn2)c1Oc1ccc(Cl)cn1
Found: 0

Lookup: Notebook: pull reported pest or weed control at 125 g/ha for ragweed (common ragweed, Ambrosia elatior), entry FC(F)c1cccc(Oc2ncc(Br)cn2)c1Oc1ncc(Cl)cn1
Found: 60

Lookup: Notebook: pull reported pest or weed control at 125 g/ha for ragweed (common ragweed, Ambrosia elatior), entry Fc1ccc(F)c(Oc2ncc(Br)cn2)c1Oc1ncc(Br)cn1
Found: 20

Lookup: Notebook: pull reported pest or weed control at 125 g/ha for ragweed (common ragweed, Ambrosia elatior), entry N#Cc1cccc(Oc2ncc(Cl)cn2)c1Oc1ccc(Cl)cc1
Found: 0

Lookup: Notebook: pull reported pest or weed control at 125 g/ha for ragweed (common ragweed, Ambrosia elatior), entry Fc1cnc(Oc2c(F)ccc(F)c2Oc2ncc(F)cn2)nc1
Found: 90

Lookup: Notebook: pull reported pest or weed control at 125 g/ha for ragweed (common ragweed, Ambrosia elatior), entry FCc1cccc(Oc2ncc(Cl)cn2)c1Oc1ncc(Cl)cn1
Found: 40
